Molecular target: RET(KD: 658-1114 G810R) (Homo sapiens, UniProt P07949, G810R)
Construct: 658-1114; expressed in transfected cells; host or cells: 293T.165 (293T cells, generated in-house)
Sequence (P07949 658-1114 G810R): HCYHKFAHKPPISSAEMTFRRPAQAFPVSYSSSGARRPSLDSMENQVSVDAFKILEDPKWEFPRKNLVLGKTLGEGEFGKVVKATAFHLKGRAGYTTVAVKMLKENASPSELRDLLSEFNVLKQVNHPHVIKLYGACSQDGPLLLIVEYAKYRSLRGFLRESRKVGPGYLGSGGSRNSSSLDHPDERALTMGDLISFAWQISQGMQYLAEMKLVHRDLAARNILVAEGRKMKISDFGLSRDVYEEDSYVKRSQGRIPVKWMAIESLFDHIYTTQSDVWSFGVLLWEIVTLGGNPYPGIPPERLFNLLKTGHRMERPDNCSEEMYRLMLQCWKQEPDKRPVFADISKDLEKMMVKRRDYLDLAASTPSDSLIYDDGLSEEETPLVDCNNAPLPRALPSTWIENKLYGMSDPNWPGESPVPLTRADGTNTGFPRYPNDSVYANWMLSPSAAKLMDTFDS
Experiment: HiBiT-Degradation, RET G810R degradation assay (Nano-Glo HiBiT Lytic), 293T.165 cells
Assay type: cell-based
Conditions: 6.0 hours, % remaining protein, read-out: 293T.165 RET(KD: 658-1114 G810R) 6.0 hours (Emax)
Items are presented alongside their recorded Emax.

Take a look at these entries with their results.
# COMPOUND, Emax
data = [
    ("CCC1(C(=O)NC(C)C)CCN(c2ccc(-c3nc(-c4cnn(C5CCN(C(=O)CC6(OC)CCN(c7ccc(NC8CCC(=O)NC8=O)cc7F)CC6)CC5)c4)cn4ncc(C#N)c34)cn2)CC1 (centres unmarked)", "< 30%"),
    ("N#Cc1cnn2cc(-c3cnn(C4CCN(C(=O)CC5(O)CCN(c6ccc(NC7CCC(=O)NC7=O)cc6F)CC5)CC4)c3)cc(-c3ccc(N4CCC(c5cccc(O)c5)CC4)nc3)c12 (centres unmarked)", "< 30%"),
]

What value of Emax on RET(KD: 658-1114 G810R) (Homo sapiens, UniProt P07949, G810R) does CCC1(C(=O)NC(C)C)CCN(c2ccc(-c3nc(-c4cnn(C5CCN(C(=O)CC6(O)CCN(c7ccc(NC8CCC(=O)NC8=O)c(F)c7)CC6)CC5)c4)cn4ncc(C#N)c34)cn2)CC1 (centres unmarked) have?
< 50%

What value of Emax on RET(KD: 658-1114 G810R) (Homo sapiens, UniProt P07949, G810R) does COc1ccc(CN2C[C@H]3COC[C@@H](C2)N3c2ccc(-c3nc(-c4cnn([C@H]5CC[C@H](N6CCN(c7ccc(NC8CCC(=O)NC8=O)cc7F)CC6)CC5)c4)cn4ncc(C#N)c34)cn2)cn1 (some centres unmarked) have?
< 30%

What value of Emax on RET(KD: 658-1114 G810R) (Homo sapiens, UniProt P07949, G810R) does N#Cc1cnn2cc(-c3cnn([C@H]4CC[C@H](N5CCC(c6ccc(N[C@H]7CCC(=O)NC7=O)cc6F)CC5)CC4)c3)nc(-c3ccc(N4CCC5(CC4)OCc4cccnc45)nc3)c12 (single isomer, unassigned) have?
< 30%

====

Items are presented alongside their recorded Emax.
molecular target: RET(KD: 658-1114 G810R) (Homo sapiens, UniProt P07949, G810R); construct: 658-1114; expressed in transfected cells; host or cells: 293T.165 (293T cells, generated in-house); experiment: HiBiT-Degradation, RET G810R degradation assay (Nano-Glo HiBiT Lytic), 293T.165 cells; type: cell-based; settings: 6.0 hours, % remaining protein, read-out: 293T.165 RET(KD: 658-1114 G810R) 6.0 hours (Emax)

Take a look at these entries with their results.
# MOLECULE, MEASURED TARGET, Emax
data = [
    ("CCC1(C(=O)NC(C)C)CCN(c2ncc(-c3nc(-c4cnn(C5CCN(C(=O)CC6(O)CCN(c7ccc(NC8CCC(=O)NC8=O)cc7F)CC6)CC5)c4)cn4ncc(C#N)c34)cc2F)CC1 (stereo not drawn)", "RET(KD: 658-1114 G810R) (Homo sapiens, UniProt P07949, G810R)", "< 50%"),
    ("COc1cc(N2CCN([C@H]3CC[C@H](n4cc(-c5cn6ncc(C#N)c6c(-c6ccc(N7C[C@H]8COC[C@@H](C7)N8Cc7ccc(F)cc7)nc6)n5)cn4)CC3)CC2)c(F)cc1NC1CCC(=O)NC1=O (relative stereo)", "RET(KD: 658-1114 G810R) (Homo sapiens, UniProt P07949, G810R)", "< 30%"),
]

Could you share which Emax value was measured for COCC1(Cc2ccccn2)CCN(c2ccc(-c3nc(-c4cnn(C5CCN(C(=O)CN6CCC(c7ccc(NC8CCC(=O)NC8=O)cc7F)CC6)CC5)c4)cn4ncc(C#N)c34)cn2)CC1 (stereo not drawn) ?
< 30%

====

target: RET (658-1114) (Homo sapiens, UniProt P07949); construct: 658-1114; expressed in transfected cells; host or cells: 293T.144 (293T cells, generated in-house); assay: HiBiT-Degradation, RET wild-type degradation assay (Nano-Glo HiBiT Lytic), 293T.144 cells; type: cell-based
REPORTED ENDPOINT: 293T.144 RET (658-1114) 6.0 hours (IP) [nM]

# MOLECULE, MEASURED TARGET, REPORTED MEASUREMENT
records = [
    ("CCC1(NC(=O)c2ncccc2Cl)CCN(c2ccc(-c3nc(-c4cnn([C@H]5CC[C@@H](N6CCN(c7ccc8c(N9CCC(=O)NC9=O)nn(C)c8c7F)CC6)CC5)c4)cn4ncc(C#N)c34)cn2)CC1 (single isomer, unassigned)", "RET (658-1114) (Homo sapiens, UniProt P07949)", "++++ (<50 nM = ++++)"),
    ("CCC1(C(=O)NC(C)C)CCN(c2ccc(-c3cc(-c4cnn(C5CC6(C5)CN(C5CCN(c7ccc(NC8CCC(=O)NC8=O)cc7F)CC5)C6)c4)cn4ncc(C#N)c34)cn2)CC1 (stereo not drawn)", "RET (658-1114) (Homo sapiens, UniProt P07949)", "++++ (<50 nM = ++++)"),
    ("CCC1(C(=O)NC(C)C)CCN(c2ccc(-c3nc(-c4cnn(C5CCC6(CC5)CN(C(=O)CC5(O)CCN(c7ccc(NC8CCC(=O)NC8=O)cc7F)CC5)C6)c4)cn4ncc(C#N)c34)cn2)CC1 (stereo not drawn)", "RET (658-1114) (Homo sapiens, UniProt P07949)", "++++ (<50 nM = ++++)"),
]

====

Target: RET(KD: 658-1114 G810R) (Homo sapiens, UniProt P07949, G810R)
Construct: 658-1114; expressed in transfected cells; host or cells: 293T.165 (293T cells, generated in-house)
Sequence (P07949 658-1114 G810R): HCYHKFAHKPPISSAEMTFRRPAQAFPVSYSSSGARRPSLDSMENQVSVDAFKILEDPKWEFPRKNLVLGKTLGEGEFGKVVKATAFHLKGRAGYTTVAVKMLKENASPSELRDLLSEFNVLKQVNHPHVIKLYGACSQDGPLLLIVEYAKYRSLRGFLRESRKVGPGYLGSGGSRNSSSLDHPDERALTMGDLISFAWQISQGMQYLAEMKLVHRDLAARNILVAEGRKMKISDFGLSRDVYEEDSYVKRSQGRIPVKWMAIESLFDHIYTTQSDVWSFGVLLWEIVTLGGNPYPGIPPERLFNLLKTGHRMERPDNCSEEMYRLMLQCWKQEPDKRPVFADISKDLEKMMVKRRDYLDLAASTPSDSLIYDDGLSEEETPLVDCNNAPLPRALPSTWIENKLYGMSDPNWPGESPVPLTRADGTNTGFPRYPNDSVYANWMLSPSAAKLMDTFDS
Test: HiBiT-Degradation, RET G810R degradation assay (Nano-Glo HiBiT Lytic), 293T.165 cells
Assay type: cell-based
Conditions: 6.0 hours, half-maximal degradation concentration, read-out: 293T.165 RET(KD: 658-1114 G810R) 6.0 hours (DC50)
REPORTED ENDPOINT: DC50

Take a look at these entries with their results.
# COMPOUND, DC50
records = [
    ("CC1(c2ncccn2)CCN(c2ccc(-c3nc(-c4cnn(C5CCN(C(=O)CC6(O)CCN(c7ccc(NC8CCC(=O)NC8=O)cc7F)CC6)CC5)c4)cn4ncc(C#N)c34)cn2)CC1 (stereo not shown)", "< 50 nM"),
    ("COc1cc(N2CCN([C@H]3CC[C@H](n4cc(-c5cn6ncc(C#N)c6c(-c6ccc(N7C[C@H]8COC[C@@H](C7)N8CC7CCOCC7)nc6)n5)cn4)CC3)CC2)c(F)cc1NC1CCC(=O)NC1=O (single isomer, unassigned)", "< 100 nM"),
    ("N#Cc1cnn2cc(-c3cnn([C@H]4CC[C@H](N5CCN(c6c(F)cc(NC7CCC(=O)NC7=O)cc6F)CC5)CC4)c3)nc(-c3ccc(N4CC5CC(C4)N5CC4CCC(F)(F)CC4)nc3)c12 (stereo partly shown)", "< 100 nM"),
    ("CCC1(C(=O)NC(C)C)CCN(c2ccc(-c3cc(-c4cnc(N5CCN(C(=O)CN6CCC(c7ccc(NC8CCC(=O)NC8=O)cc7F)CC6)CC5)nc4)cn4ncc(C#N)c34)cn2)CC1 (stereo not shown)", "< 1000 nM"),
    ("N#Cc1cnn2cc(-c3cnn(C4CCN(C(=O)CC5(O)CCN(c6ccc(NC7CCC(=O)NC7=O)cc6F)CC5)CC4)c3)nc(-c3ccc(N4CCN(C(=O)C5CCC5)CC4)nc3)c12 (stereo not shown)", "< 50 nM"),
    ("N#Cc1cnn2cc(-c3ccc(N4CCN(C(=O)CN5CCC(c6ccc(NC7CCC(=O)NC7=O)cc6F)CC5)CC4)cc3)cc(-c3ccc(N4CCN(C(=O)Cc5ccc(F)cn5)CC4)nc3)c12 (stereo not shown)", "< 100 nM"),
]

With those in mind, consider the next compound.
What value of DC50 on RET(KD: 658-1114 G810R) (Homo sapiens, UniProt P07949, G810R) does CCC1(C(=O)NC(C)C)CCN(c2ccc(-c3nc(-c4cnn(C5CC6(C5)CN(C(=O)CC5(O)CCN(c7ccc(NC8CCC(=O)NC8=O)cc7F)CC5)C6)c4)cn4ncc(C#N)c34)cn2)CC1 (stereo not shown) have?
< 50 nM

All values here come from patent US12661410B2.
